system: PC-3 prostate; assay: NCI tumour cell line growth inhibition, 48 h; in the data active = GI50 below about 0.43 µM; inactive = the rest
Valid outcomes are listed here; reply with one: active, inactive

Molecule	Qualitative label
Cc1c(C(N)=O)sc2nc(C)n(/N=c3\scc(-c4ccccc4)n3Cc3ccccc3)c(=O)c12	inactive
COc1ccc(-c2c(-c3ccc(C#N)c(F)c3)nc(N3CCC(N)CC3)n(C)c2=O)cc1F	inactive
CCOCCOCCOCCOCCOCCOCCOCCOCCOCCO (tested in a mixture with another compound)	inactive
CCCCCCCCN=C(NCCCCCCCC)SCc1cccc2ccccc12	inactive
COc1ccc2c(c1)-c1c(c3cc(OC)ccc3n(CCN(C)C)c1=O)C2=O	inactive

Q. Please state the recorded outcome for this molecule: "Cc1cc(N2CCOCC2)nc(NCc2cc(Nc3ccnc4cc(Cl)ccc34)ccc2F)n1"
A. inactive

Q. Please state the recorded outcome for this molecule: "CCS(=O)(=O)c1ccc(OC)c(Nc2ncc(-c3cccc(F)c3)o2)c1"
A. inactive

Q. Please state the recorded outcome for this molecule: N#CC1=C(N)OC2=C(CCOc3c2ccc2ccccc32)C1c1ccc(Br)cc1 (stereo unspecified)
A. inactive

Q. Please state the recorded outcome for this molecule: "COc1cc(C(=O)O[C@H](C(=O)NCCCCNC(=O)[C@@H](OC(=O)c2cc(OC)cc3c(C)cccc23)[C@]2(C)CO2)[C@]2(C)CO2)c2cccc(C)c2c1"
A. active

Q. Please state the recorded outcome for this molecule: COc1ccc2nc3ccccc3c(NCCNCC(C)O)c2c1 (stereo unspecified)
A. inactive
